- System: RPMI 8226 cells
- method.description: MTT assay of cell viability in RPMI 8226 cells
- Type: cell-based, Human
- condition.details: Homo sapiens, RPMI-8226, 72 h
Each entry below carries its reported IC50.
Reply with just the number (in µM).

molecule="COC(=O)C1CC(=O)N(Cc2ccccc2)C1c1ccccc1 (centres unmarked)" study_system="RPMI 8226 cells" unit_of_measurement=µM result_number=34

API: the following record is the query input.
Request: Please look up its IC50: O=C(O)C1CC(=O)N(Cc2ccccc2)C1c1ccccc1 (racemic)
Response: 15

----------
- study.system: proteasome (Homo sapiens)
- Construct: endogenous in cells
- Sequence (P28074 60-263): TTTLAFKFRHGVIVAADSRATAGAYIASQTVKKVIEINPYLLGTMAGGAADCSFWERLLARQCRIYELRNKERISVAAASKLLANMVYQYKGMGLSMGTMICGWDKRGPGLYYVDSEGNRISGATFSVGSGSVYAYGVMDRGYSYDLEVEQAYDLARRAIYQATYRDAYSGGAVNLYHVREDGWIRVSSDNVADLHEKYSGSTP
- method.description: Proteasome activity assay on lysates of treated RPMI 8226 cells (Suc-LLVY-AMC substrate)
- condition.details: RPMI 8226 cells treated 24 h; read-out: IC50 (proteasome inhibition)
Each entry below carries its reported pIC50.
Lab note — pIC50 values are minus log10 of concentrations in M.

compound="O=C(O)C1CC(=O)N(Cc2ccccc2)C1c1ccccc1 (single isomer, unassigned; (+)) [(+)-(2S,3S)-13]" metric=pIC50 result_number=3.72

API: the following record is the query input.
Request: Please look up its pIC50: O=C(O)C1CC(=O)N(Cc2ccccc2)C1c1ccccc1 (single isomer, unassigned; (-)) [(−)-(2R,3R)-13]
Response: 4.05

Source: paper PMC9658545
